// compounds with reported IC50 on TEC (Homo sapiens), multi-publication

compound | IC50
O=C(c1c(F)ccc(NS(=O)(=O)C2CCCC2)c1F)c1c[nH]c2ncc(Cl)cc12 | ≤ 10 µM
Cn1cc(-c2cnc3[nH]cc(C(=O)c4cccc(NS(=O)(=O)c5ccc(F)cc5)c4)c3c2)cn1 | ≤ 10 µM
O=C(CNc1cc(Cl)cc(Cl)c1)N1CC2CC(Nc3ncnc4[nH]ccc34)C1C2 (centres unmarked) | > 10 µM

Provide IC50 value for the following compound: C=CC(=O)N1CCCC[C@@H](n2c(NC(=O)c3ccnc(C)c3)nc3cccc(OC4CCN(C(C)=O)CC4)c32)C1
≤ 0.01 µM

* * *

Several reports have described IC50 for TEC (Homo sapiens, UniProt P42680); a selection of those results is presented here.

The cases that follow already have their IC50 on record.
chem-smiles | property-measured | test-value
Nc1c(N2CCN(C3CCCCC3)CC2)cc(Nc2ccc(C(=O)O)cc2)c2c1C(=O)c1ccccc1C2=O | IC50 | > 10 µM
CCn1cc(C(=O)NCc2ccc(-c3ccnc4[nH]nc(N[C@H]5CC[C@H](O)CC5)c34)cc2F)cn1 | IC50 | > 10 µM
Cn1cc(-c2cnc3[nH]cc(C(=O)c4cccc(NS(=O)(=O)c5ccc(Cl)cc5)c4)c3c2)cn1 | IC50 | ≤ 10 µM

# context switch: different compound, same IC50
Report its IC50 with TEC (Homo sapiens, UniProt P42680) as the test system: O=C(c1cc(NS(=O)(=O)c2cccc(F)c2)ccc1F)c1c[nH]c2ncccc12
Sequence (P42680 whole entry): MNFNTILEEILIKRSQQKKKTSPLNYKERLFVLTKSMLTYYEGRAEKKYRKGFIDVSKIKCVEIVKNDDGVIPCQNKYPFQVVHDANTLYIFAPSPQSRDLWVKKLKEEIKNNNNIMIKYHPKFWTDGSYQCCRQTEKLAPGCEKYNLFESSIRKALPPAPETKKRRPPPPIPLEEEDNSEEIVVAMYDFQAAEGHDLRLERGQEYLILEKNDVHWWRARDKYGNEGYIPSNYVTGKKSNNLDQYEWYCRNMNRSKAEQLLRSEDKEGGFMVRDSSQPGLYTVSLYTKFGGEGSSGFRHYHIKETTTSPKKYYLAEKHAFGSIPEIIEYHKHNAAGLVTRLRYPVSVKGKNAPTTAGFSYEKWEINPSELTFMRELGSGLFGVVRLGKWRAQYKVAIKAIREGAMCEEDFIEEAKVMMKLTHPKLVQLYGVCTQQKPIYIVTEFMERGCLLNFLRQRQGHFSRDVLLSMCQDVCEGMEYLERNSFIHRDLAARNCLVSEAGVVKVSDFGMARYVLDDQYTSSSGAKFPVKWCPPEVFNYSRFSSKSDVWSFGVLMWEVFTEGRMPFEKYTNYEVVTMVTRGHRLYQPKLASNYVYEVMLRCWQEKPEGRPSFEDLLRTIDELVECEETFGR
≤ 10 µM

* * *

Values of IC50 for TEC (Homo sapiens), collected from a number of published sources:

Worked cases, answers included:
molecule | IC50
CN(C)C(=O)N1CC[C@@H](Nc2n[nH]c3nccc(-c4ccc(C5(NC(=O)c6nc(C(C)(C)C)no6)CC5)cc4)c23)C1 | > 10 µM
CN(C)C/C=C/C(=O)Nc1cccc(-n2nc(-c3ccc(Cl)cc3)c3c(N)ncnc32)c1 | < 0.1 µM
C[C@@H](NC(=O)c1noc(C(C)(C)C)n1)c1ccc(-c2ccnc3[nH]nc(N[C@@H]4CCNC4)c23)cc1 | > 10 µM
CS(=O)(=O)Nc1cccc(-c2cnc3[nH]cc(C(=O)c4cc(NS(=O)(=O)C5CCCC5)ccc4F)c3c2)c1 | ≤ 10 µM
N#Cc1cnc2[nH]cc(C(=O)c3cccc(NS(=O)(=O)C4CCCC4)c3F)c2c1 | ≤ 10 µM

// next item, IC50 requested
For CS(=O)(=O)Nc1ccc(F)c(C(=O)c2c[nH]c3ncc(-c4cccc(S(C)(=O)=O)c4)cc23)c1 , write its IC50.
≤ 10 µM

* * *

pIC50: −log10 of the molar value.
// compounds with pIC50 on TEC (Homo sapiens), multi-source literature

Worked cases, answers included:
compound | system | test-value
COc1ccc(S(=O)(=O)Nc2ccc(F)c(C(=O)c3c[nH]c4ncc(Cl)cc34)c2F)cc1 | TEC (Homo sapiens) | ≥ 5.00
COc1ncc(-c2cnc3[nH]cc(C(=O)c4c(F)ccc(NS(=O)(=O)c5ccccc5F)c4F)c3c2)cn1 | TEC (Homo sapiens) | ≥ 5.00
Clc1ccc(CNc2ccc(Cc3c[nH]c4ncncc34)cn2)cc1 | TEC (Homo sapiens) | ≥ 5.00
CC(C)S(=O)(=O)Nc1ccc(F)c(C(=O)c2c[nH]c3ncc(C#N)cc23)c1F | TEC (Homo sapiens) | ≥ 5.00

Consider the compound N#Cc1cnc2[nH]cc(C(=O)c3cccc(NS(=O)(=O)CC(F)(F)F)c3F)c2c1 tested on TEC (Homo sapiens); state its pIC50.
≥ 5.00

Consider the compound CCCS(=O)(=O)Nc1ccc(F)c(C(=O)c2c[nH]c3ncc(C(C)C)cc23)c1F tested on TEC (Homo sapiens); state its pIC50.
≥ 5.00

# return pIC50 for C[C@@H](NC(=O)c1noc(C(C)(C)C)n1)c1ccc(-c2ccnc3[nH]nc(N[C@@H]4CCN(C=O)C4)c23)cc1 , test system: TEC (Homo sapiens)
5.84

Write down measured pIC50 (TEC (Homo sapiens)) for this compound. C=CC(=O)N[C@H]1CCCC[C@@H]1Nc1n[nH]c2nccc(-c3ccc(CNC(=O)c4cc(C(C)(C)C)on4)c(F)c3)c12
5.05

Quote pIC50 with test system TEC (Homo sapiens) for C=CC(=O)N1C[C@H](Nc2n[nH]c3nccc(-c4ccc(CNC(=O)c5nc(C(C)(C)C)no5)c(F)c4)c23)CC[C@@H]1C
7.55

# lookup: TEC (Homo sapiens) pIC50, key = N#Cc1cnc2[nH]cc(C(=O)c3c(F)ccc(NS(=O)(=O)C4CCCC4)c3F)c2c1
≥ 5.00

Specify pIC50 for C=CC(=O)N1CC[C@@H](Nc2n[nH]c3nccc(-c4ccc(CNC(=O)c5ccn(C(C)(C)C)n5)c(F)c4)c23)C1 , system TEC (Homo sapiens).
6.39

Return reported pIC50 for target or system TEC (Homo sapiens), item CC#CC(=O)N1CC[C@@H](Nc2n[nH]c3nccc(-c4ccc(CNC(=O)c5noc(C(C)(C)C)n5)c(F)c4)c23)C1 .
7.66

Enter pIC50 (test system TEC (Homo sapiens)) for CCCCS(=O)(=O)Nc1cccc(C(=O)c2c[nH]c3ncc(-c4cnn(C)c4)cc23)c1
≥ 5.00

Provide measured pIC50 on TEC (Homo sapiens) for C=CC(=O)N1CC(Nc2n[nH]c3nccc(-c4ccc(CNC(=O)c5ccc(C(C)(C)C)cc5)c(F)c4)c23)C1 please.
< 5.00

Fill in: pIC50 on TEC (Homo sapiens), entry CCN(CC)S(=O)(=O)Nc1ccc(F)c(C(=O)c2c[nH]c3ncc(-c4cnc(OC)nc4)cc23)c1F
≥ 5.00

State pIC50 on TEC (Homo sapiens). Entry: CN(C)S(=O)(=O)Nc1ccc(F)c(C(=O)c2c[nH]c3nccc(Cl)c23)c1F
≥ 5.00

Report pIC50 from TEC (Homo sapiens) testing of C=CC(=O)N1CC[C@@H](Nc2n[nH]c3nccc(-c4ccc(CNC(=O)c5cc(C(C)(C)C)on5)c(F)c4)c23)C1
7.38

Tell me pIC50 of CN1CCCN([C@@H]2CCN(c3n[nH]c4nccc(-c5ccc(CNC(=O)c6noc(C(C)(C)C)n6)c(F)c5)c34)C2)C1=O when tested on TEC (Homo sapiens).
5.16

For TEC (Homo sapiens), give pIC50 of the listed compound: O=C(CNc1ccccc1S(=O)(=O)N1CCCCC1)N1CCC2CCN(c3ncnc4[nH]ccc34)C2C1 (centres unmarked)
5.00 to 6.00

State recorded pIC50 with TEC (Homo sapiens), entry COc1ncc(-c2cnc3[nH]cc(C(=O)c4c(F)ccc(NS(=O)(=O)C5CCCC5)c4F)c3c2)cn1 , no comment.
≥ 5.00
